So I've got a bunch of binders here, and I need their CD8 EC50 (nM); CD69/CD25 on human T cells, plate-coated antibody values.
Study Target: human CD3 (human, UniProt P07766 23-207; P04234 22-171; P09693 23-182)
Sequence (P07766 23-207, chain 1 of 3): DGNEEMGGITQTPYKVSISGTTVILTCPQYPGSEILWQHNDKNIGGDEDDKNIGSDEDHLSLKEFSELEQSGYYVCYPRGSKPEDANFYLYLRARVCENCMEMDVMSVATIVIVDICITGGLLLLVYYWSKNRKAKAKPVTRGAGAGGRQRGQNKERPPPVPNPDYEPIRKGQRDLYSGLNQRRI
Sequence (P04234 22-171, chain 2 of 3): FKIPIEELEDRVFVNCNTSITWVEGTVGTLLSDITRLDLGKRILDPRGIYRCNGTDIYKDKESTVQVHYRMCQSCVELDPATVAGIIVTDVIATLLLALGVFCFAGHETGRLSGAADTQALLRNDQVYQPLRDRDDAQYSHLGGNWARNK
Sequence (P09693 23-182, chain 3 of 3): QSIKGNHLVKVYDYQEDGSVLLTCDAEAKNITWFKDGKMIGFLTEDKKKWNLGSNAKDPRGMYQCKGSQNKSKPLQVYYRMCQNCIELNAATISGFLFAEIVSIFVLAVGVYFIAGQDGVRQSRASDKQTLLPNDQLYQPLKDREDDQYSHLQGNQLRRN
Assay Name: cell-based or functional assay
Enter the number, and then the unit.

Ask: Consider the binder mAb 100 (antibody, V domains shown) VH: QVQLVESGGGVVQPGRSLRLSCVASGFTFRGYGMHWVRQAPGKGLEWVAIIYYDGKNKYYADSVKGRFTISRDNSKNTLYLQMNSLRVEDTALYYCARGGGYNWFDPWGQGTLVTVSS VL: DIQMTQSPSSLSASVGDRVTITCRASQSISTYLNWYQQKPGKAPKLLIYTASSLQSGVPSRFSGSGSGTVFTLTISSLQPEDFAIYYCQRSYSPPFTFGPGTRLDIK . State its measured CD8 EC50 (nM); CD69/CD25 on human T cells, plate-coated antibody.
Reply: 13.3 nM

Ask: Consider the binder mAb 164 (antibody, V domains shown) VH: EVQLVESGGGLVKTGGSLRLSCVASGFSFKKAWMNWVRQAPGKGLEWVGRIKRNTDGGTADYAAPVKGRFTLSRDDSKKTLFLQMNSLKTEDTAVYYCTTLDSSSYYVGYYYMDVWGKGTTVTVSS VL: DIQMTQSPSSVSASVGDRVTITCRASQDIKNWLAWYQQKPGKAPKLLIYTASSLQSGVPSRFSGSGSGTDFTLTIGSLQPEDFATYYCQQAHSLPITFGQGTRLEIK . State its measured CD8 EC50 (nM); CD69/CD25 on human T cells, plate-coated antibody.
Reply: 6.62 nM

Ask: Consider the binder mAb 78 (antibody, V domains shown) VH: EVQLVESGGGLVQPGGSLRLSCAASGFTFSSYWMSWVRQAPGKGLEWVANIKQDGSEKYYVDSVKGRFTISRDNAKNSLYLQMNSLRAEDTAVYYCARDNSPSFYWYFDLWGRGTLVTVSS VL: DIQMTQSPSTLSASVGDRVTITCRASQSLSRWLAWYQQKPGKAPKLLIYKASSLESGVPSRFSGSGSGTEFTLTISSLQPDDFATYYCQQYYTYSRTFGQGTKVEIK . State its measured CD8 EC50 (nM); CD69/CD25 on human T cells, plate-coated antibody.
Reply: 12.2 nM

Sourced from patent US20230295310A1
